- ASSAY: Pharmacokinetics and oral bioavailability of D11.2 in male SD rats (IV, PO, SQ)
- Type: in vivo
- EXPERIMENTAL_SETUP: rat, in vivo, iv, 1 mg/kg, IV 1 mg/kg, Mean
Where a SMILES comes first, the peptide text is derived from it. [ ]: non-standard residue; d: D form. NMeL = CN[C@@H](CC(C)C)C(=O)O; Sar = CNCC(=O)O

- COMPOUND: "CC[C@@H](C)[C@H]1NC(=O)[C@@H]2CCCN2C(=O)[C@@H]([C@H](C)CC)NC(=O)CN(C)C(=O)[C@H](CC(C)C)NC(=O)[C@@H](Cc2ccccc2)NC(=O)[C@H](CC(C)C)N(C)C(=O)[C@H]2CCCN2C(=O)[C@@H](CC(C)C)NC(=O)[C@H](CC(C)C)NC(=O)[C@H]2CCCN2C1=O [Design D11.2] (cyclo(L[Sar][dI]P[dI][dP]L[dL][dP][NMeL][dF]))"
  MRT inf (h): 2.35
